biological target: T1, serum purified human Complement Factor D (human, UniProt P00746 26-253); assay: SPR Biacore, antibody on protein A chip, single cycle kinetics, 25 C;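 further: antibodies captured to roughly 70 RU on the protein A surface in HBS-EP+ running buffer, with kinetic constants derived by BIAevaluation fitting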
T1 construct: Serum purified protein flowed over the captured antibodies; also called CFD; human CFD
T1 sequence (P00746 26-253): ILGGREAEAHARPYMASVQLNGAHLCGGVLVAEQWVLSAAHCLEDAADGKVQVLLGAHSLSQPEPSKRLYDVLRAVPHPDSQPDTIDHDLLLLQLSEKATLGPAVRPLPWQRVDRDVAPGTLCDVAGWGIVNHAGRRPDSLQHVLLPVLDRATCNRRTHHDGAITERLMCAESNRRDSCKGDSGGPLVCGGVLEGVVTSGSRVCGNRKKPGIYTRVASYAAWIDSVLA
outcome-measure: Kd (pM)
Answers are plain numbers, in pM.

1. 31S54I59D / 32W60W101V (antibody, V domains shown, KCD119 TAF variant; full antibody captured on protein A) VH: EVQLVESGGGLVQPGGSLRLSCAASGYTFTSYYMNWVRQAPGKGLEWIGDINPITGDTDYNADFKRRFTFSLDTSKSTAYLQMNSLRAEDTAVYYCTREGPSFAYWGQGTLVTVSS VL: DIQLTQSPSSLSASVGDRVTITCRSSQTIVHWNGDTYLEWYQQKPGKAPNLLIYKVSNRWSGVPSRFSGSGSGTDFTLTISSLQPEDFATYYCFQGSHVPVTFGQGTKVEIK
16.5
2. 54I59D / 54S60W101V (antibody, V domains shown, Light label printed 54560W101V, read as 54S60W101V; also called 54I59D / 54560W101V) VH: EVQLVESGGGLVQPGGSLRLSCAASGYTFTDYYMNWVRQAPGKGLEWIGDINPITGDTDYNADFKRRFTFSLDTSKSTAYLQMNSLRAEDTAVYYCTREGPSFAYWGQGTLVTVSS VL: DIQLTQSPSSLSASVGDRVTITCRSSQTIVHSNGDTYLEWYQQKPGKAPNLLISKVSNRWSGVPSRFSGSGSGTDFTLTISSLQPEDFATYYCFQGSHVPVTFGQGTKVEIK
9.85
3. 54I59D / 50I60W101V (antibody, V domains shown, KCD119 TAF variant; full antibody captured on protein A) VH: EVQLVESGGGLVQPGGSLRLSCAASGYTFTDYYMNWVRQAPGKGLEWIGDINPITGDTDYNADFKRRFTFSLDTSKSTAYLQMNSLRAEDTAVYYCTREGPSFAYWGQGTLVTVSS VL: DIQLTQSPSSLSASVGDRVTITCRSSQTIVHSNGDTYLEWYQQKPGKAPILLIYKVSNRWSGVPSRFSGSGSGTDFTLTISSLQPEDFATYYCFQGSHVPVTFGQGTKVEIK
12.1
4. 34I54I59D / 54R101V (antibody, V domains shown, KCD119 TAF variant) VH: EVQLVESGGGLVQPGGSLRLSCAASGYTFTDYYINWVRQAPGKGLEWIGDINPITGDTDYNADFKRRFTFSLDTSKSTAYLQMNSLRAEDTAVYYCTREGPSFAYWGQGTLVTVSS VL: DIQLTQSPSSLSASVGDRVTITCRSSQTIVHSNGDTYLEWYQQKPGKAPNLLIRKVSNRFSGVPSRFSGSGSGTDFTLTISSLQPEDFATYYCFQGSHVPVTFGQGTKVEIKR
5.62
5. 54V59D / 54R101V (antibody, V domains shown, KCD119 TAF variant) VH: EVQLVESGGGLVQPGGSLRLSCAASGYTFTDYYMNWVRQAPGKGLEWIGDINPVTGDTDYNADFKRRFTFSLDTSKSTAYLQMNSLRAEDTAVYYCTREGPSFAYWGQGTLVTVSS VL: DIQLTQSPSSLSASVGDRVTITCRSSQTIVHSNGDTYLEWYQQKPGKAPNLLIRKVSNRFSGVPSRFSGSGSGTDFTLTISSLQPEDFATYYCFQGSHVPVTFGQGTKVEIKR
11.9

Could you report Kd for every entry in the following list?
1. 54I59D / 32W54S60W101V (antibody, V domains shown, Light label printed 32W54560W101V, read as 32W54S60W101V; also called 54I59D / 32W54560W101V) VH: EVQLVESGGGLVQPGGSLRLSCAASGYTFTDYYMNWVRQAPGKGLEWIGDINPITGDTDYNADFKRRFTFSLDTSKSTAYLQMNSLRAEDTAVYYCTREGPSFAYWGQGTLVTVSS VL: DIQLTQSPSSLSASVGDRVTITCRSSQTIVHWNGDTYLEWYQQKPGKAPNLLISKVSNRWSGVPSRFSGSGSGTDFTLTISSLQPEDFATYYCFQGSHVPVTFGQGTKVEIK
2. 31S54I59D84S / 54R101V (antibody, V domains shown, also called 31554159D845 / 54R101V) VH: EVQLVESGGGLVQPGGSLRLSCAASGYTFTSYYMNWVRQAPGKGLEWIGDINPITGDTDYNADFKRRFTFSLDTSKSTAYLQMSSLRAEDTAVYYCTREGPSFAYWGQGTLVTVSS VL: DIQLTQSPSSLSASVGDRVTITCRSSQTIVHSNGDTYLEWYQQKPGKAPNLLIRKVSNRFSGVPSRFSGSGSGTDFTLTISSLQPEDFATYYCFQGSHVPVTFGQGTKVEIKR

1. 8.58
2. 6.13

Could you report Kd for every entry in the following list?
1. 28V31S54V59D / 101V (antibody, V domains shown, KCD119 TAF variant; full antibody captured on protein A) VH: EVQLVESGGGLVQPGGSLRLSCAASGYVFTSYYMNWVRQAPGKGLEWIGDINPVTGDTDYNADFKRRFTFSLDTSKSTAYLQMNSLRAEDTAVYYCTREGPSFAYWGQGTLVTVSS VL: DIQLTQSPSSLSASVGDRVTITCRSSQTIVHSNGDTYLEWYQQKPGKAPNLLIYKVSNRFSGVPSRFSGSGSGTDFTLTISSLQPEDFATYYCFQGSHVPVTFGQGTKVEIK
2. 34I54I59D84S / 54R101V (antibody, human IgG1, V domains shown, Human IgG1 kappa; also called OG1965) VH: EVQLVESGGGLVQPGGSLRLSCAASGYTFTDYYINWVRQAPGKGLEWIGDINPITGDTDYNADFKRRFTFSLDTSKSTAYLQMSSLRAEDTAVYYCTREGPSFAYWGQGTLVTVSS VL: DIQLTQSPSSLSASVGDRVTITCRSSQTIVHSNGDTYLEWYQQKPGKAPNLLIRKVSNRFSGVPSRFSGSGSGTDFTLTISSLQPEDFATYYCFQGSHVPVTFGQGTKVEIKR

1. 6.01
2. 4.37
